- System: FB
- PROTOCOL DETAILS: Euclidean distance of Cell Painting phenotypic profile (signed KS, 77 features) to DMSO centroid (dimensionless distance); 5 or 10 uM (library dependent); higher = stronger phenotypic change vs DMSO (phenoactivity)
- RUN CONDITIONS: 48 h
# label = yes (1) if Euclidean distance >= 1 else no (0)

# MOLECULE, CATEGORY
records = [
    ("NS(=O)(=O)c1ccc(NC(=O)Nc2ccc(F)cc2)cc1", "yes (1)"),
    ("CCCCN(Cc1ccc(C(=O)NO)cc1)C(=O)Nc1ccccc1", "yes (1)"),
    ("C=C(C)[C@@H]1CC[C@]2(CO)CC[C@]3(C)[C@H](CC[C@@H]4[C@@]5(C)CC[C@H](O)C(C)(C)[C@@H]5CC[C@]43C)[C@@H]12", "yes (1)"),
    ("CO[C@@]1(NC(=O)C(C(=O)O)c2ccc(O)cc2)C(=O)N2C(C(=O)O)=C(CSc3nnnn3C)CO[C@@H]21 (stereo not given in full) [Latamoxef sodium]", "no (0)"),
]

* * *

- Test system: A549
- PROTOCOL DETAILS: Euclidean distance of Cell Painting phenotypic profile (signed KS, 77 features) to DMSO centroid (dimensionless distance); 5 or 10 uM (library dependent); higher = stronger phenotypic change vs DMSO (phenoactivity)
- RUN CONDITIONS: 48 h
Counter-ions that a name gives are not always drawn.
# label = class 1 if Euclidean distance >= 0.8 else class 0

# COMPOUND, CATEGORY
records = [
    ("COc1cc(C(=O)OCCCCNC(=N)N)cc(OC)c1O [Leonurine]", "class 1"),
    ("COc1c(C)c2c(c(O)c1C/C=C(\\C)CCC(=O)O)C(=O)OC2 [Mycophenolic acid]", "class 1"),
    ("CCC(=O)O[C@@H](O[P@](=O)(CCCCc1ccccc1)CC(=O)N1C[C@H](C2CCCCC2)C[C@H]1C(=O)O)C(C)C [Fosinopril Sodium]", "class 0"),
    ("COc1ccc([C@@H]2CC(=O)c3c(O)cc(O)cc3O2)cc1O [Hesperetin]", "class 1"),
    ("O=C(c1ccc(F)cc1)N1CCC[C@H](c2nc(-c3ccc(F)cc3)no2)C1", "class 0"),
    ("CN(Cc1cnc2nc(N)nc(N)c2n1)c1ccc(C(=O)N[C@@H](CCC(=O)O)C(=O)O)cc1 [Methotrexate]", "class 1"),
    ("CC(C)C[C@H](NC(=O)[C@H]1O[C@@H]1C(=O)O)C(=O)NCCCCN=C(N)N", "class 1"),
    ("CO/N=C(\\C(=O)N[C@@H]1C(=O)N2C(C(=O)OCOC(=O)C(C)(C)C)=C(/C=C\\c3scnc3C)CS[C@H]12)c1csc(N)n1 [Cefditoren Pivoxil]", "class 0"),
    ("COc1cc(OC)c(/C=C/S(=O)(=O)Cc2ccc(OC)c(NCC(=O)O)c2)c(OC)c1", "class 1"),
    ("CC(=O)c1cc2c(o1)C(=O)c1ccccc1C2=O [Napabucasin]", "class 1"),
    ("CNC(=O)c1cc(Oc2ccc3nc(N[C@@H]4CCCC[C@H]4O)sc3c2)ccn1", "class 1"),
    ("c1ccc([C@H]2CN3CCSC3=N2)cc1 [Levamisole hydrochloride]", "class 0"),
    ("NC(=O)N1c2ccccc2C=Cc2ccccc21 [Carbamazepine]", "class 0"),
    ("CCCS(=O)(=O)N[C@H]1C[C@@H](N(C)c2ncnc3[nH]ccc23)C1", "class 1"),
]
